Biological target: human Cannabinoid Receptor 1 (CB1R) (Homo sapiens)
Construct: syn-prepro (synthetic yeast pre-pro secretion leader) (N); expressed in transfected cells; host or cells: Saccharomyces cerevisiae BY4741-derived strain (ste2, sst2, far1 knocked out); Gpa1-Gαi3 chimera
Assay type: cell-based
Conditions: PINACA compounds, 1 μM
experimental-readout: Normalized Activity at 1 μM, CB1R
# print the numeric value only

Asked: What Normalized Activity at 1 μM, CB1R appears in the records for this compound with human Cannabinoid Receptor 1 (CB1R) (Homo sapiens)? `CCCCCn1nc(C(=O)N[C@@H](CCCC)C(N)=O)c2ccccc21`
Given back: 0.735

Asked: Likewise for CCC(F)CCn1nc(C(=O)NC(C(N)=O)C(C)C)c2ccccc21 (centres unmarked) ?
Given back: 0.700

Asked: Continue with CCCC(F)Cn1nc(C(=O)NC(C(N)=O)C(C)C)c2ccccc21 (centres unmarked)
Given back: 0.632

Asked: // same read-out, input: CCCCCn1nc(C(=O)NC(C(N)=O)C(C)(C)C)c2ccccc21 (centres unmarked) [drawing 2]
Given back: 0.590

Asked: Field entry: CCCCCn1nc(C(=O)NC(C)(C(N)=O)C(C)C)c2ccccc21 (centres unmarked)
Given back: 0.810

====

Molecular target: human Cannabinoid Receptor 1 (CB1R) (Homo sapiens, UniProt P21554)
Construct: syn-prepro (synthetic yeast pre-pro secretion leader) (N); expressed in transfected cells; host or cells: Saccharomyces cerevisiae BY4741-derived strain (ste2, sst2, far1 knocked out); Gpa1-Gαi3 chimera
Sequence (P21554 90-472): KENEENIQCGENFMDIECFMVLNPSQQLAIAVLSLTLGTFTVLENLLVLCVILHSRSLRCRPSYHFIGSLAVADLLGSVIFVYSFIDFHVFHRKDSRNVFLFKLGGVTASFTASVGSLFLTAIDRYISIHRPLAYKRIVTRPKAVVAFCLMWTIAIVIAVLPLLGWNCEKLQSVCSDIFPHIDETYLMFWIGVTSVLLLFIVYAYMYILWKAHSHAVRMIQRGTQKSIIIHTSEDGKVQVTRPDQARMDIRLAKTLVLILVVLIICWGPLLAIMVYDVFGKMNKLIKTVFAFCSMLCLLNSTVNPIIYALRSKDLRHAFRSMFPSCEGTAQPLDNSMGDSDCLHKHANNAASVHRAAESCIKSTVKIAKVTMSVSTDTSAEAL
Assay type: cell-based
Details: PINACA compounds, 1 μM
experimental-readout: Normalized Activity at 1 μM, CB1R
The reply should be a number, written without any unit.

Asked: So what's the measured Normalized Activity at 1 μM, CB1R for this one? CCCCCn1nc(C(=O)N[C@H](C(N)=O)[C@@H](C)CC)c2ccccc21 (single isomer, unassigned)
Given back: 0.753

Asked: Now the same for CCCCCn1nc(C(=O)N[C@H](C(N)=O)C(C)C)c2ccccc21 [drawing 1]
Given back: 0.550

Asked: CC(C)(C)C(NC(=O)c1cn(Cc2ccccc2)c2ccccc12)C(N)=O (stereo not drawn) , same question.
Given back: 0.842
